- EXPERIMENTAL SYSTEM: HSP90α (Homo sapiens, UniProt P07900)
- ASSAY INFO: Affinity to HSP90α
- Type: binding
- CONDITIONS: HSP90 affinity
ASSAY READOUT: IC50 (nM)

Here's what some known entries look like.
O=C1OCC/C=C/CC/C=C/C(=NOCC(=O)N2CCCC2)Cc2cc(O)cc(O)c21 [compound 388]: 219
O=C1OCC/C=C/CC/C=C/C(=NOCC(=O)N2CCC(c3ccccc3)CC2)Cc2cc(O)cc(O)c21 [compound 376]: 2240
COC(=O)CON=C1/C=C/CC/C=C/CCOC(=O)c2c(O)cc(O)cc2C1 [compound 385]: 373

A = O=C1OCC/C=C/CC/C=C/C(=NOCC(=O)N2CC=CC2)Cc2cc(O)cc(O)c21 [compound 386]
B = C[C@@H]1C/C=C/[C@@H](O)C/C=C/C(=N/OCC(=O)N2CCCCC2)Cc2cc(O)cc(O)c2C(=O)O1 [compound 457]
Query string: Just tell me: smaller IC50 value, A or B ? Label of pick, please.
Result string: B
(B: 12 nM, A: 128 nM)

I = CC(C)CN(CC(C)C)C(=O)CON=C1/C=C/CC/C=C/CCOC(=O)c2c(O)cc(O)cc2C1 [compound 390]
II = CCN(CC)C(=O)CON=C1/C=C(\C)CC/C=C/C[C@@H](C)OC(=O)c2c(O)cc(O)cc2C1 [compound 351]
Query string: Of I and II , which one carries the higher reported IC50? Label of pick, please.
Result string: II
(II: 204 nM, I: 94 nM)

---

- Tested on: Her-2 (HSP90 client)
- ASSAY INFO: Her-2 (HSP90 client) degradation (client depletion)
- Assay type: cell-based
- CONDITIONS: Her-2 degradation; read-out: Client Depletion
ASSAY READOUT: IC50 (µM)

Here's what some known entries look like.
O=C1OCCC/C=C/CC/C=C/C(=NOCC(=O)N2CCCCC2)Cc2c(Cl)c(O)cc(O)c21: 3.65
O=C(CON=C1/C=C/CC/C=C/CCOC(=O)c2c(O)cc(O)c(Cl)c2C1)NCCO [13h]: 7.7
C[C@@H]1C/C=C/CC/C=C/C(=O)Cc2c(Cl)c(O)cc(O)c2C(=O)O1 [pochonin D, Pochonin D, reference compound]: 3.5

I = CC(C)(C)OC(=O)N1CCN(C(=O)CON=C2/C=C/CC/C=C/CCOC(=O)c3c(O)cc(O)cc3C2)CC1
II = O=C1OCC/C=C/CC/C=C/C(=N/OCC(=O)N2CCCCC2)Cc2c(Cl)c(O)cc(O)c21 [13a]
Query string: Of I and II , which one carries the higher reported IC50? Label of pick, please.
Result string: I
(I: 2.87 µM, II: 0.035 µM)

---

- EXPERIMENTAL SYSTEM: HSP90α (Homo sapiens)
- ASSAY INFO: Affinity to HSP90α
- Type: binding
- CONDITIONS: read-out: HSP90 affinity
ASSAY READOUT: IC50 (nM)

C[C@@H]1C/C=C/CC/C=C/C(=O)Cc2c(Cl)c(O)cc(O)c2C(=O)O1 [pochonin D, Pochonin D, reference compound]: 360

I = COC(=O)CON=C1/C=C/CC/C=C/CCOC(=O)c2c(O)cc(O)c(Cl)c2C1 [13l]
II = O=C1OCC/C=C/CCCCC(=NOCC(=O)N2CCCCC2)Cc2c(Cl)c(O)cc(O)c21 [13g]
Query string: Of I and II , which one carries the higher reported IC50? Label of pick, please.
Result string: I
(I: 190 nM, II: 81 nM)

---

- EXPERIMENTAL SYSTEM: HSP90α (Homo sapiens, UniProt P07900)
- ASSAY INFO: Affinity to HSP90α
- Type: binding
- CONDITIONS: read-out: HSP90 affinity
pIC50: −log10 of the molar value.
ASSAY READOUT: pIC50

Here's what some known entries look like.
CC(C)(C)OC(=O)N1CCN(C(=O)CON=C2/C=C/CC/C=C/CCOC(=O)c3c(O)cc(O)cc3C2)CC1: 6.49
O=C1OC/C=C/CCCCC(=NOCC(=O)N2CCCCC2)Cc2cc(O)cc(O)c21: 5.52
CC1/C=C/COC(=O)c2c(O)cc(O)c(Cl)c2CC(=NOCC(=O)N2CCCCC2)/C=C/C1 (centres unmarked): 6.22
O=C1OCC/C=C/CC/C=C/C(=NOCC(=O)N2CCOCC2)Cc2c(Cl)c(O)cc(O)c21 [13d]: 6.66

I = O=C(CON=C1/C=C/CC/C=C/CCOC(=O)c2c(O)cc(O)c(Cl)c2C1)NC1CCCCC1 [13k]
II = O=C1OCC/C=C/CCCCC(=NOCC(=O)N2CCCCC2)Cc2c(Cl)c(O)cc(O)c21 [compound 356]
III = O=C1OCC/C=C/CC/C=C/C(=N/OCC(=O)N2CCCCC2)Cc2c(Cl)c(O)cc(O)c21 [13a]
IV = CNC(=O)CON=C1/C=C/CC/C=C/CCOC(=O)c2c(O)cc(O)c(Cl)c2C1 [13i]
V = O=C1OCCC/C=C/CC/C=C/C(=NOCC(=O)N2CCCCC2)Cc2c(Cl)c(O)cc(O)c21
Query string: Please list these compounds in decreasing order of pIC50. Reply: labels, ordered per the request.
Result string: III, I, V, II, IV
(III: 7.68, I: 7.05, V: 6.74, II: 6.29, IV: 5.92)

1 = O=C(CON=C1/C=C/CC/C=C/CCOC(=O)c2c(O)cc(O)c(Cl)c2C1)NCc1ccccc1 [13j]
2 = COC1CC/C=C/CCOC(=O)c2c(O)cc(O)c(Cl)c2C/C(=N\OCC(=O)N2CCCCC2)C1 (centres unmarked) [13f]
Query string: Of 1 and 2 , which one carries the higher reported pIC50? Label of pick, please.
Result string: 2

---

- Tested on: Her-2 (HSP90 client)
- ASSAY INFO: Her-2 (HSP90 client) degradation (client depletion)
- Assay type: cell-based
- CONDITIONS: Her-2 degradation; read-out: Client Depletion
pIC50: −log10 of the molar value.
ASSAY READOUT: pIC50

COC(=O)CON=C1/C=C/CC/C=C/CCOC(=O)c2c(O)cc(O)c(Cl)c2C1 [13l]: 5.19
CC1/C=C/CCCOC(=O)c2c(O)cc(O)cc2CC(=NOCC(=O)N2CCCCC2)/C=C/C1 (centres unmarked): 5.53
O=C1OCC/C=C/CCCCC(=NOCC(=O)N2CCCCC2)Cc2c(Cl)c(O)cc(O)c21: 5.02

1 = O=C(CON=C1/C=C/CC/C=C/CCOC(=O)c2c(O)cc(O)c(Cl)c2C1)NC1CCCCC1 [13k]
2 = O=C(CON=C1/C=C/CC/C=C/CCOC(=O)c2c(O)cc(O)c(Cl)c2C1)NCc1ccccc1 [13j]
Query string: Just tell me: smaller pIC50 value, 1 or 2 ? Label of pick, please.
Result string: 2
(2: 5.26, 1: 6.60)

---

- EXPERIMENTAL SYSTEM: UniProtKB P07900
- ASSAY INFO: Affinity to HSP90α
- Type: binding
- CONDITIONS: HSP90 affinity
ASSAY READOUT: IC50 (nM)

Here's what some known entries look like.
CCC1CCCCN1C(=O)CON=C1/C=C/CC/C=C/CCOC(=O)c2c(O)cc(O)cc2C1 (stereo not shown) [compound 371]: 243
CC1CN(C(=O)CON=C2/C=C/CC/C=C/CCOC(=O)c3c(O)cc(O)cc3C2)CC(C)O1 (stereo not shown) [compound 391]: 337
CC(C)N(C(=O)CON=C1/C=C/CC/C=C/CCOC(=O)c2c(O)cc(O)cc2C1)C(C)C [compound 379]: 162

P = CC1CCCCN1C(=O)CON=C1/C=C/CC/C=C/CCOC(=O)c2c(O)cc(O)cc2C1 (stereo not shown) [compound 372]
Q = CC1/C=C/C[C@@H](C)OC(=O)c2c(O)cc(O)c(Cl)c2CC(=NOCC(=O)N2CCCCC2)/C=C/C1 (stereo partly shown) [compound 369]
Query string: Of P and Q , which one carries the higher reported IC50? Label of pick, please.
Result string: P
(P: 886 nM, Q: 154 nM)

I = C/C1=C\C(=NOCC(=O)N2CCCCC2)Cc2cc(O)cc(O)c2C(=O)OCC/C=C/CC1 [compound 349]
II = O=C1OCC/C=C/CC/C=C/C(=NOCC(=O)N2CC=CCC2)Cc2cc(O)cc(O)c21 [compound 382]
III = CCCC1C/C=C/CCCCC(=NOCC(=O)N2CCCCC2)Cc2cc(O)cc(O)c2C(=O)O1 (stereo not shown) [compound 359]
Query string: Please list these molecules in decreasing order of IC50. Reply: labels, ordered per the request.
Result string: III, I, II
(III: 1940 nM, I: 46 nM, II: 22 nM)

I = CC1/C=C/CCOC(=O)c2c(O)cc(O)c(Cl)c2CC(=NOCC(=O)N2CCCCC2)/C=C/C1 (stereo not shown) [compound 366]
II = CCCC1C/C=C/CC/C=C/C(=NOCC(=O)N2CCCCC2)Cc2cc(O)cc(O)c2C(=O)O1 (stereo not shown) [compound 358]
Query string: Just tell me: smaller IC50 value, I or II ? Label of pick, please.
Result string: I
(I: 170 nM, II: 587 nM)

A = CCN(CC)C(=O)CON=C1/C=C/CC/C=C/CCOC(=O)c2c(O)cc(O)cc2C1 [compound 357]
B = O=C1OCC/C=C/CC/C=C/C(=NOCC(=O)N2CCOCC2)Cc2cc(O)cc(O)c21 [compound 380]
C = CC1CCN(C(=O)CON=C2/C=C/CC/C=C/CCOC(=O)c3c(O)cc(O)cc3C2)CC1 [compound 375]
D = CCCC1C/C=C/C(C)C/C=C/C(=NOCC(=O)N2CCCCC2)Cc2c(Cl)c(O)cc(O)c2C(=O)O1 (stereo not shown) [compound 365]
Query string: Please list these molecules in decreasing order of IC50. Reply: labels, ordered per the request.
Result string: D, A, B, C

a = CC1CCCC(C)N1C(=O)CON=C1/C=C/CC/C=C/CCOC(=O)c2c(O)cc(O)cc2C1 (stereo not shown) [compound 374]
b = CCCC1C/C=C/CC/C(C)=C/C(=NOCC(=O)N(CC)CC)Cc2cc(O)cc(O)c2C(=O)O1 (stereo not shown) [compound 362]
Query string: Of a and b , which one carries the higher reported IC50? Label of pick, please.
Result string: b
(b: 4660 nM, a: 238 nM)
